# credit: patent US20240301052A1

Molecular target: T1, Rhesus SLC34A2 (Rhesus, UniProt F7HDA3 1-690)
T1 construct: whole, on cells
T1 sequence: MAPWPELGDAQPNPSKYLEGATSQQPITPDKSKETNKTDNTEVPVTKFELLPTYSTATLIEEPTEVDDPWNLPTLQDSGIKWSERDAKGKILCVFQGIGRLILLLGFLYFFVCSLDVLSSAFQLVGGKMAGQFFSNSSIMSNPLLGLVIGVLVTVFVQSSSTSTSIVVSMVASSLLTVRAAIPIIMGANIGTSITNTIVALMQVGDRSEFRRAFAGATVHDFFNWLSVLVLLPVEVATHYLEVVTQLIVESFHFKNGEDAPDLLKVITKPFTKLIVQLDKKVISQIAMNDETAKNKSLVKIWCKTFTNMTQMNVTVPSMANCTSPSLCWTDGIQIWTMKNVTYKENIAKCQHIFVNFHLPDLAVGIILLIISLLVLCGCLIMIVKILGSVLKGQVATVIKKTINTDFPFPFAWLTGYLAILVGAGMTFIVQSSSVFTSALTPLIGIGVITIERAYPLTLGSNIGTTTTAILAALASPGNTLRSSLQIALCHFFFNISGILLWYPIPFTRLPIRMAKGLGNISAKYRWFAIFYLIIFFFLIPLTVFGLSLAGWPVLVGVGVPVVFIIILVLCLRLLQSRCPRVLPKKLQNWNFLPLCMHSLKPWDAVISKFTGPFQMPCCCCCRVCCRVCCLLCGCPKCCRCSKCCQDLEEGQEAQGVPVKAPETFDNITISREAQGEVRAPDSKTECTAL
Assay: FACS, HEK293/Rhesus SLC34A2 cells
quantity-measured: EC50 (µM)
Provide only the numeric value, understood in µM.

Field EC50 (entry xi84F2D10 hIgG1 (antibody, V domains shown, chimeric, hIgG1) VH: QVQLQQPGAVLVKPGASVKMSCKASGYTFTSYNLHWVKQTPGQGLEWIGAIYPGNGDTSYIQKFKGKATLTADKSSSTAYMQLSSLTSEDSAVYYCARGKYGNYEGFAYWGQGTLVTVSA VL: DILLTQSPAILSVSPGERVSISCRASQSIGTSIYWYQQRRNGSPRLLIKFASESISGIPSRFSGSGSGTDFTLSINSVESEDIADYYCQQNNRWPFTFGSGTKLEIK ) reads 0.046
